The measured values listed here are drawn from PubChem BioAssay (NCATS).

# Test system: AS120
# Test details: qHTS profiling for inhibitors of Plasmodium falciparum proliferation (AID 504749); note: nearly all actives have a fitted effect of over 60% in size
# Condition set: P. falciparum in erythrocytes, SYBR Green DNA, 72 h; series mostly up to 28.7 µM
Records with an inconclusive call do not appear. The source made the active and inactive calls. Calls come from the whole dose curve; as a rule, active = well fitted inhibition curve with a large enough effect; inconclusive = small, poorly fitted or top-dose-only effect; inactive = flat fitted curve, though single readings scatter.
# valid calls are active, inactive; nothing else

CCN(CC)CCNC(=O)c1c(C)[nH]c(/C=C2\C(=O)Nc3ccc(F)cc32)c1C = active
CC1(C)[C@@H]2CC[C@@]1(C)C(=O)C2 = inactive
CCCCCCCCCCCCOS(=O)(=O)O = inactive
Cc1cc(N)c2ccccc2[n+]1CCCCCCCCCC[n+]1c(C)cc(N)c2ccccc21 = active
CCCCOC(=O)c1ccc(O)cc1 = inactive

# input Hi team, can someone confirm the assay call for "CCCc1c(OCCCCc2nn[nH]n2)ccc(C(C)=O)c1O" ?
# output inactive

# input Hi team, can someone confirm the assay call for "O=C(O)c1ccccc1-c1ccc(C(F)(F)F)cc1" ?
# output inactive

# input Hi team, can someone confirm the assay call for "OCCN1CCN(CCCN2c3ccccc3Sc3ccc(Cl)cc32)CC1" ?
# output active

# input Hi team, can someone confirm the assay call for COc1ccc2[nH]c(S(=O)Cc3ncc(C)c(OC)c3C)nc2n1 (stereo not drawn) ?
# output active

# input Hi team, can someone confirm the assay call for CC1=C(CC(=O)O)c2cc(F)ccc2/C1=C\c1ccc(S(C)=O)cc1 (stereo not drawn) ?
# output inactive

# input Hi team, can someone confirm the assay call for "O=S(=O)(O)c1cc(I)c(O)c2ncccc12" ?
# output inactive

# input Hi team, can someone confirm the assay call for COCCOC(=O)C1=C(C)NC(C)=C(C(=O)OC/C=C/c2ccccc2)C1c1cccc([N+](=O)[O-])c1 (stereo not drawn) ?
# output active

# input Hi team, can someone confirm the assay call for "CCCCOc1cc(C(=O)OCCN(CC)CC)ccc1N" ?
# output inactive
